pIC50: −log10 of the molar value.
Endpoint summary: pIC50, system: DNA polymerase beta (Rattus norvegicus), multiple sources combined.
ASSAY READOUT: pIC50

1. CC(C)CCC[C@@H](C)[C@H]1CC[C@H]2[C@@H]3CC[C@H]4C[C@@H](OCC(=O)O)CC[C@]4(C)[C@H]3CC[C@]12C    < 3.30
2. CC(C)CCC[C@@H](C)[C@H]1CCC2C3CC=C4C[C@@H](OC(O)CO)CC[C@]4(C)C3CC[C@@]21C (some centres not stated)    < 3.30
3. COc1cc(C)c(C(=O)O[C@H]2CC3=C(COC(/C=C/CO)=C3)C(=O)[C@@]2(C)O)c(O)c1    4.56
4. CC[C@H](/C=C/[C@@H](C)[C@H]1CCC2C3CC=C4C[C@@H](OCC(=O)O)CC[C@]4(C)C3CC[C@@]21C)C(C)C (some centres not stated)    4.00
5. COc1cccc2c1C(O)CCC2O (configuration not stated)    < 3.00
6. CC(C)CCC[C@@H](C)[C@H]1CC[C@H]2[C@@H]3CC[C@H]4C[C@@H](OC(O)CO)CC[C@]4(C)[C@H]3CC[C@]12C (some centres not stated)    < 3.30
7. COc1cccc2c1C(=O)CCC2O (configuration not stated)    < 3.00
